Could you please report measured pIC50 for the items listed next?
Assay: Cytotoxicity against p53 deficient human HCT116 cells after 72 hrs by MTS assay
Format: functional, cell-based
Conditions: HCT-116, 72 h
Give bare numbers, as −log10 of the molar value.

>  <molecule>
CC(=O)NC1C[C@]2(C)[C@H]3CC[C@@H]4[C@H]5[C@H]6OC[C@@]5(CCC6(C)C)CC[C@@]4(C)[C@]3(C)CC[C@H]2C(C)(C)C1=O (some centres not stated)

>  <pIC50>
4.41

$$$$
>  <molecule>
CC1(C)CC[C@]23CC[C@]4(C)[C@H](CC[C@@H]5[C@@]6(C)C=C(O)C(=O)C(C)(C)[C@@H]6CC[C@]54C)[C@H]2[C@H]1OC3

>  <pIC50>
4.48

$$$$

Query molecule follows.
Q: I have this molecule here, CC1(C)CC[C@]23CC[C@]4(C)[C@H](CC[C@@H]5[C@@]6(C)CC(N)[C@H](O)C(C)(C)[C@@H]6CC[C@]54C)[C@H]2[C@H]1OC3 (some centres not stated) , and I need its recorded pIC50.
A: 5.32
